Origin of measurements: patent US20260184663A1

tested on: A549 (lung adenocarcinoma); assay: Antiproliferative activity (CCK-8 cell viability), A549; assay type: cell-based; details: Homo sapiens, Compound concentration: 10 μM, 72 h, read-out: Antiproliferative activity in cancerous cells, A549 (inhibition of cell growth)
endpoint-name: inhibition at 10 µM

Example entries and their recorded answers appear below.
molecule	study-system	inhibition at 10 µM
CC1=C(CC(=O)O)c2cc(F)ccc2/C1=C\c1ccc(COCc2ccc(C)cc2)cc1 [B102]	A549 (lung adenocarcinoma)	≥ 50%
CC1=C(CC(=O)O)c2cc(Br)ccc2/C1=C\c1cccc(Oc2ccccc2)c1 [C110]	A549 (lung adenocarcinoma)	≥ 50%
COc1ccc2c(c1)C(CC(=O)O)=C(C)/C2=C/c1cccc(COc2ccccc2)c1 [B20]	A549 (lung adenocarcinoma)	< 30%

# lookup: inhibition at 10 µM of COc1ccc(S(=O)(=O)Cc2ccc(/C=C3/C(C)=C(CC(=O)O)c4cc(F)ccc43)cc2)cc1 [B46]
< 30%

Entry CC1=C(CC(=O)O)c2cc(Cl)c(Cl)cc2/C1=C/c1ccc(Oc2ccc(F)cc2)cc1 [E28] please
≥ 50%

Entry O=C(O)CC1=C/C(=C/c2cccc(Oc3ccccc3)c2)c2cc(OCC(F)(F)F)ccc21 [C15] please
< 30%

Entry CCc1ccc2c(c1)C(CC(=O)O)=C(C)/C2=C/c1ccc(COc2ccc(F)c(F)c2)cc1 [B55] please
≥ 50%

Entry CC1=C(CC(=O)O)c2cc(F)ccc2/C1=C\c1cccc(C2(c3ccccc3)SCCS2)c1 [C352] please
≥ 50%
